# assayed system: Human CDK12 wt/CycK (Homo sapiens (Human), UniProt Q9NYV4)
# Sequence (Q9NYV4 whole entry): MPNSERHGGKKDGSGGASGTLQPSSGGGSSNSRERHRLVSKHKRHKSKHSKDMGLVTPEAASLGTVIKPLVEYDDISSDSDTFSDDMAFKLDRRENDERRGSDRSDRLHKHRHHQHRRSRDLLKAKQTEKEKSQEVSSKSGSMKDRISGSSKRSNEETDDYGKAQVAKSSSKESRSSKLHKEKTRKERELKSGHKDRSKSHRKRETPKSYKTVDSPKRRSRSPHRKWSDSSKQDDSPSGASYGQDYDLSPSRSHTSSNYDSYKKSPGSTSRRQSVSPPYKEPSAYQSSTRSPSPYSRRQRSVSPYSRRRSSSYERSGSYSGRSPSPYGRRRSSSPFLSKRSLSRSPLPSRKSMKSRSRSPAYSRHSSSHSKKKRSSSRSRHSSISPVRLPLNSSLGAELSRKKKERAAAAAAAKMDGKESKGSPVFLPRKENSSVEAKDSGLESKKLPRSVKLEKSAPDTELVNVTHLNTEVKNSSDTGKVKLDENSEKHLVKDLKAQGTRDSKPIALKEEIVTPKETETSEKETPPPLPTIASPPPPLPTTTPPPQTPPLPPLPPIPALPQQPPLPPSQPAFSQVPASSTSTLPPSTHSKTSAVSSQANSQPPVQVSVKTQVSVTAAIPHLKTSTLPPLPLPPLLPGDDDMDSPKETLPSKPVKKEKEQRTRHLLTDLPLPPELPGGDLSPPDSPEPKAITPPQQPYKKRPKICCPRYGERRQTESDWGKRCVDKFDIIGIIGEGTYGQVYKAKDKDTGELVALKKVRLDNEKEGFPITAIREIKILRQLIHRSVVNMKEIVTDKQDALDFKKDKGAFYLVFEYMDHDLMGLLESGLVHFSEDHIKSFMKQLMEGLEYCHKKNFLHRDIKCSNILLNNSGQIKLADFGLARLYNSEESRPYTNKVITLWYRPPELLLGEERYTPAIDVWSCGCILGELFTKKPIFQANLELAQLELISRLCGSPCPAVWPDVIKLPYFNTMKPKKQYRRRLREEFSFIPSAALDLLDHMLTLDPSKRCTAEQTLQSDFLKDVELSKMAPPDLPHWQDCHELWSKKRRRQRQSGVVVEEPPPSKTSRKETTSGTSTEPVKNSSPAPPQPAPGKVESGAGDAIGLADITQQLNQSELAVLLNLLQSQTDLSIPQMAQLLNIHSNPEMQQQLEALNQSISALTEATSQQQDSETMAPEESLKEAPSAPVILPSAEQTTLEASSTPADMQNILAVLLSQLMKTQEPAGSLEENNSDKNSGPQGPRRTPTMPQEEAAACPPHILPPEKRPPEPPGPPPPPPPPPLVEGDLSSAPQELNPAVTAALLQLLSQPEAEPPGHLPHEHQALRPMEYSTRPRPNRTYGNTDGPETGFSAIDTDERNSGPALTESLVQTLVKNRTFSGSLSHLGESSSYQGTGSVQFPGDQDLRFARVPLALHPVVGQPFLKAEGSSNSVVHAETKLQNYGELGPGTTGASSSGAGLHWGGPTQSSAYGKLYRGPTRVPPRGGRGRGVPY
# Sequence (O75909 whole entry partner): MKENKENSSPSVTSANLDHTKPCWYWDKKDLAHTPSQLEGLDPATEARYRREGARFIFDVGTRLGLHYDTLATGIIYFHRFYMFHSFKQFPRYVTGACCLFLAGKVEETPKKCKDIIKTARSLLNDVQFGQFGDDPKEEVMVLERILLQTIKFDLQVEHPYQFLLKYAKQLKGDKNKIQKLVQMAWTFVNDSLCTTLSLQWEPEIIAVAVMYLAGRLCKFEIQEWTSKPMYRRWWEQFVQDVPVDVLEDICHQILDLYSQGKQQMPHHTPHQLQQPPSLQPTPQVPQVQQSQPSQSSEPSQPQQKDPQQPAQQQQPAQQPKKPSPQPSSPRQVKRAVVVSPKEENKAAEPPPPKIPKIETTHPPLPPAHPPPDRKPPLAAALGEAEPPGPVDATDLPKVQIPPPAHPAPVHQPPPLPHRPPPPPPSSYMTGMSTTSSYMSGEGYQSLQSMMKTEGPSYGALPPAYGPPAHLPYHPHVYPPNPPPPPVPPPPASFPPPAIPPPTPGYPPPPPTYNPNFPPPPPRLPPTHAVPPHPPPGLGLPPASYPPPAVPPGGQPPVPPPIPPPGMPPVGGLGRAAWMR
# test name: Radiometric protein kinase assay (33PanQinase Activity Assay), CDK12
# Type: biochemical
# condition description: Table 3; CDK12 kinase activity; read-out: Biochemical Potency IC50
metric: IC50 (nM)
Respond with the bare value in nM.

Known results for molecules:
Cc1cccn2cc(CNc3cc(NC[C@H]4CCNC[C@@H]4O)nc4c(C5CC5)cnn34)nc12	164
CC(C)c1cnn2c(NCc3cn4cccc(C5CC5)c4n3)cc(NC[C@H]3CCNC[C@@H]3O)nc12	70
CC(C)Oc1cccc2nc(CNc3cc(NC[C@H]4CCNC[C@@H]4O)nc4c(C5CC5)cnn34)cn12	46

query: Fill: IC50 (Human CDK12 wt/CycK (Homo sapiens (Human), UniProt Q9NYV4)) for this molecule O[C@H]1CNCC[C@@H]1CNc1cc(NCc2cn3c(C(F)(F)F)cccc3n2)n2ncc(C3CC3)c2n1
result: 208

====

Listed compounds paired with reported CDK7/CDK12
# assayed system: Human CDK12 wt/CycK (Homo sapiens (Human), UniProt Q9NYV4)
# test name: Radiometric protein kinase assay (33PanQinase Activity Assay), CDK12
# Type: biochemical
# condition description: Table 1; ratio greater than 1 indicated selectivity for CDK12
// keep it numeric: no unit symbol after the value

CC(C)c1cnn2c(NCc3cn4cccnc4n3)cc(NC[C@H]3CCNC[C@@H]3O)nc12 [H-APPAMP-002]	9.85
O[C@H]1CNCC[C@@H]1CNc1cc(NCc2cn3cc(C4CC4)cc(C(F)(F)F)c3n2)n2ncc(C3CC3)c2n1 [H-APPAMP-042]	9.7
CC(C)c1cnn2c(NCc3cn4ccccc4n3)cc(NC[C@H]3CCNC[C@@H]3O)nc12 [H-APPAMP-003]	8.19
CCc1cnn2c(NCc3cn4cccc(C)c4n3)cc(NC[C@H]3CCNC[C@@H]3O)nc12 [H-APPAMP-026]	2.2
O[C@H]1CNCC[C@@H]1CNc1cc(NCc2cn3cc(C(F)(F)F)cc(Cl)c3n2)n2ncc(C3CC3)c2n1 [H-APPAMP-033]	17.1
Cc1cccc2nc(CNc3cc(NC[C@H]4CCNC[C@@H]4O)nc4c(C5CC5)cnn34)cn12 [H-APPAMP-025]	9.3

Please look at the following compound next.
query: Please indicate CDK7/CDK12 recorded for Cc1cc(C(F)(F)F)cc2nc(CNc3cc(NC[C@H]4CCNC[C@@H]4O)nc4c(C5CC5)cnn34)cn12 [H-APPAMP-039]
result: 38.1

====

# assayed system: Human CDK12 wt/CycK (Homo sapiens (Human))
# test name: Radiometric protein kinase assay (33PanQinase Activity Assay), CDK12
# Type: biochemical
# condition description: Table 3; CDK12 kinase activity; read-out: Biochemical Potency IC50
metric: IC50
Please make sure the unit comes right after the number.

Known results for molecules:
CC(C)c1cnn2c(NCc3ccc4ccccc4n3)cc(NC[C@H]3CCNC[C@@H]3O)nc12	75 nM
Cc1cc(C(F)(F)F)cc2nc(CNc3cc(NC[C@H]4CCNC[C@@H]4O)nc4c(C5CC5)cnn34)cn12	48 nM
CC(C)c1cnn2c(NCc3cnc4ccccc4c3)cc(NC[C@H]3CCNC[C@@H]3O)nc12	167 nM
Cc1ccn2c(CNc3cc(NC[C@H]4CCNC[C@@H]4O)nc4c(C(C)C)cnn34)c(C)nc2c1	277 nM
COc1cccc2nc(CNc3cc(NC[C@H]4CCNC[C@@H]4O)nc4c(C5CC5)cnn34)cn12	28 nM

Please look at the following molecule next.
query: Please indicate IC50 recorded for CC(C)c1cnn2c(NCc3cn4cc(F)ccc4n3)cc(NC[C@H]3CCNC[C@@H]3O)nc12
result: 33 nM

====

# assayed system: Human CDK7/CycH/MAT1 (Homo sapiens (Human), UniProt P50613)
# Sequence (P50613 whole entry): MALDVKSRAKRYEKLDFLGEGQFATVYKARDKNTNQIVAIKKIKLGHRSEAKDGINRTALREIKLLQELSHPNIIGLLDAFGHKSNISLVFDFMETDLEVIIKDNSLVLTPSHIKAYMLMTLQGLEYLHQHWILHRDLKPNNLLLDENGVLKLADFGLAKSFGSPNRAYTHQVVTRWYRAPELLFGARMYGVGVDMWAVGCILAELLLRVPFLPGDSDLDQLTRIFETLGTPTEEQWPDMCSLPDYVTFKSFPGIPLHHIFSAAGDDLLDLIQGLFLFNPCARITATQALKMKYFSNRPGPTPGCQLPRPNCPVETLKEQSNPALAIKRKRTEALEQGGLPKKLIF
# Sequence (P51946 whole entry partner): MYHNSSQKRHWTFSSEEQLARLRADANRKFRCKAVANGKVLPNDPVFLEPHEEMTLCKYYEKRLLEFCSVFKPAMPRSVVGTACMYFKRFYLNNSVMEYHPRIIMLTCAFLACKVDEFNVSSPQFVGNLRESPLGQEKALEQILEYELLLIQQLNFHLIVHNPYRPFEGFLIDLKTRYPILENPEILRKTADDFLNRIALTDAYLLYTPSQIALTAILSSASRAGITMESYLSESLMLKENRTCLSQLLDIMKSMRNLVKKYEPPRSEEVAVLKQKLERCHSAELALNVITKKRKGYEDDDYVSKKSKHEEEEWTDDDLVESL
# Sequence (P51948 whole entry partner): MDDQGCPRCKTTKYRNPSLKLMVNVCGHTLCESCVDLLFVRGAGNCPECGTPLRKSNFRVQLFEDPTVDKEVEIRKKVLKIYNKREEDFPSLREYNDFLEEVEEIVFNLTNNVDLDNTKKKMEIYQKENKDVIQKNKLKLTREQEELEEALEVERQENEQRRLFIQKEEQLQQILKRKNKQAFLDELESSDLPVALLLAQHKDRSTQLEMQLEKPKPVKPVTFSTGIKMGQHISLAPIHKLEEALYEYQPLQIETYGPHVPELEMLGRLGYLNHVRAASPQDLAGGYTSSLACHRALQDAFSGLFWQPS
# test name: Radiometric protein kinase assay (33PanQinase Activity Assay), CDK7
# condition description: Table 1; ATP 3 μM
metric: log10 of IC50 (log10 of the value in µM)
Please note: log10 values; quantity IC50; unit µM.

Known results for compounds:
Cc1cc(C)n2cc(CNc3cc(NC[C@H]4CCNC[C@@H]4O)nc4c(C(C)C)cnn34)nc2n1	-0.32
CC(C)c1cnn2c(NCc3ccc4ccccc4n3)cc(NC[C@H]3CCNC[C@@H]3O)nc12	-1.72
CC(C)c1cnn2c(NCc3cnc4ccccc4c3)cc(NC[C@H]3CCNC[C@@H]3O)nc12	-1.55
O[C@H]1CNCC[C@@H]1CNc1cc(NCc2cn3cc(C(F)(F)F)cc(Cl)c3n2)n2ncc(C3CC3)c2n1	0.03
Cc1cccn2cc(CNc3cc(NC[C@H]4CCNC[C@@H]4O)nc4c(C5CCC5)cnn34)nc12	-0.71
O[C@H]1CNCC[C@@H]1CNc1cc(NCc2cn3ccc(-c4ccccc4)cc3n2)n2ncc(C3CC3)c2n1	-0.30
Cn1c(CNc2cc(NC[C@H]3CCNC[C@@H]3O)nc3c(C4CC4)cnn23)nc2cc(F)c(F)cc21	0.06
CC(C)c1cnn2c(NCc3nc4cc(C5CC5)ccn4n3)cc(NC[C@H]3CCNC[C@@H]3O)nc12	-0.57

query: Please indicate log10 of IC50 recorded for Cc1cn2cc(CNc3cc(NC[C@H]4CCNC[C@@H]4O)nc4c(C5CC5)cnn34)nc2cc1C(F)(F)F
result: 0.18

query: Please indicate log10 of IC50 recorded for Cc1ccn2cc(CNc3cc(NC[C@H]4CCNC[C@@H]4O)nc4c(C(C)C)cnn34)nc2c1
result: -0.91

query: Please indicate log10 of IC50 recorded for [2H]C([2H])(Nc1cc(NC[C@H]2CCNC[C@@H]2O)nc2c(C(C)C)cnn12)c1cn2ccccc2n1
result: -0.69

query: Please indicate log10 of IC50 recorded for CC(C)c1cnn2c(NCc3cn4ccccc4n3)cc(NC[C@H]3CCNC[C@@H]3O)nc12
result: -0.39

query: Please indicate log10 of IC50 recorded for CCc1cnn2c(NCc3cn4c(C)cccc4n3)cc(NC[C@H]3CCNC[C@@H]3O)nc12
result: -0.04

query: Please indicate log10 of IC50 recorded for Cc1csc2nc(CNc3cc(NC[C@H]4CCNC[C@@H]4O)nc4c(C(C)C)cnn34)cn12
result: -0.80

query: Please indicate log10 of IC50 recorded for O[C@H]1CNCC[C@@H]1CNc1cc(NCc2cn3nc(C4CC4)ccc3n2)n2ncc(C3CC3)c2n1
result: -1.17

query: Please indicate log10 of IC50 recorded for Cc1cc(C(F)(F)F)cc2nc(CNc3cc(NC[C@H]4CCNC[C@@H]4O)nc4c(C5CC5)cnn34)cn12
result: 0.26

====

# assayed system: Human CDK12 wt/CycK (Homo sapiens (Human), UniProt Q9NYV4)
# test name: Radiometric protein kinase assay (33PanQinase Activity Assay), CDK12
# Assay type: biochemical
# condition description: Table 1; ATP 0.3 μM; read-out: CDK12 IC50
pIC50: −log10 of the molar value.
I would appreciate it if you labelled entries 1 when pIC50 is 7 or higher, otherwise -1.

Completed entries (count: 5):
CC(C)c1cnn2c(NC(C)c3cn4ccccc4n3)cc(NC[C@H]3CCNC[C@@H]3O)nc12 (stereo partly drawn)	-1
CC(C)c1cnn2c(Nc3csc4ccccc34)cc(NC[C@H]3CCNC[C@@H]3O)nc12 [REF-003, reference compound]	-1
Cc1cc(C)n2cc(CNc3cc(NC[C@H]4CCNC[C@@H]4O)nc4c(C(C)C)cnn34)nc2n1	1
Cc1ccn2cc(CNc3cc(NC[C@H]4CCNC[C@@H]4O)nc4c(C(C)C)cnn34)nc2c1	1
CC(C)c1cnn2c(NCc3cn4cc(F)ccc4n3)cc(NC[C@H]3CCNC[C@@H]3O)nc12	1

query: Check the entry Cc1cccc2nc(CNc3cc(NC[C@H]4CCNC[C@@H]4O)nc4c(C5CC5)cnn34)cn12 : does pIC50 equal or exceed 7?
result: 1

query: Check the entry CC(C)c1cnn2c(NCc3cn4cc(Cl)ccc4n3)cc(NC[C@H]3CCNC[C@@H]3O)nc12 : does pIC50 equal or exceed 7?
result: 1

query: Check the entry CC(C)c1cnn2c(NCc3nc4cc(C5CC5)ccn4n3)cc(NC[C@H]3CCNC[C@@H]3O)nc12 : does pIC50 equal or exceed 7?
result: 1

====

Listed compounds paired with reported log10 of IC50
# assayed system: Human CDK7/CycH/MAT1 (Homo sapiens (Human))
# test name: Radiometric protein kinase assay (33PanQinase Activity Assay), CDK7
# condition description: Table 1; ATP 3 μM
Please note: log10 values; quantity IC50; unit nM.

Known results for compounds:
CC(C)c1cnn2c(NCc3cnc4ccccn34)cc(NC[C@H]3CCNC[C@@H]3O)nc12	2.25
CC(C)c1cnn2c(Nc3csc4ccccc34)cc(NC[C@H]3CCNC[C@@H]3O)nc12 [REF-003, reference compound]	1.04
Cc1cccn2cc(CNc3cc(NC[C@H]4CCNC[C@@H]4O)nc4c(C(C)C)cnn34)nc12	2.48
CC(C)c1cnn2c(NCc3ccc4c(c3)ncn4C)cc(NC[C@H]3CCNC[C@@H]3O)nc12	2.10
CC(C)c1cnn2c(NC(C)c3cn4ccccc4n3)cc(NC[C@H]3CCNC[C@@H]3O)nc12 (stereo partly drawn)	2.81

query: Please indicate log10 of IC50 recorded for O[C@H]1CNCC[C@@H]1CNc1cc(NCc2cn3c(C(F)(F)F)cccc3n2)n2ncc(C3CC3)c2n1
result: 2.81

query: Please indicate log10 of IC50 recorded for CC(C)c1cnn2c(NCc3cc4ccccc4o3)cc(NC[C@H]3CCNC[C@@H]3O)nc12
result: 1.91

query: Please indicate log10 of IC50 recorded for Cc1cccc2nc(CNc3cc(NC[C@H]4CCNC[C@@H]4O)nc4c(C5CC5)cnn34)cn12
result: 2.52

query: Please indicate log10 of IC50 recorded for CC(C)Oc1cccc2nc(CNc3cc(NC[C@H]4CCNC[C@@H]4O)nc4c(C5CC5)cnn34)cn12
result: 2.81

query: Please indicate log10 of IC50 recorded for O[C@H]1CNCC[C@@H]1CNc1cc(NCc2cn3ccc(C(F)(F)F)cc3n2)n2ncc(C3CC3)c2n1
result: 3.11

query: Please indicate log10 of IC50 recorded for Cc1cc(C)n2cc(CNc3cc(NC[C@H]4CCNC[C@@H]4O)nc4c(C5CC5)cnn34)nc2c1
result: 2.93

query: Please indicate log10 of IC50 recorded for Cc1cccc2ncc(CNc3cc(NC[C@H]4CCNC[C@@H]4O)nc4c(C(C)C)cnn34)n12
result: 2.64
